Some compounds, each annotated with its measured pIC50.
# system-tested: UniProt Q965D5
# Sequence (Q965D5 whole entry): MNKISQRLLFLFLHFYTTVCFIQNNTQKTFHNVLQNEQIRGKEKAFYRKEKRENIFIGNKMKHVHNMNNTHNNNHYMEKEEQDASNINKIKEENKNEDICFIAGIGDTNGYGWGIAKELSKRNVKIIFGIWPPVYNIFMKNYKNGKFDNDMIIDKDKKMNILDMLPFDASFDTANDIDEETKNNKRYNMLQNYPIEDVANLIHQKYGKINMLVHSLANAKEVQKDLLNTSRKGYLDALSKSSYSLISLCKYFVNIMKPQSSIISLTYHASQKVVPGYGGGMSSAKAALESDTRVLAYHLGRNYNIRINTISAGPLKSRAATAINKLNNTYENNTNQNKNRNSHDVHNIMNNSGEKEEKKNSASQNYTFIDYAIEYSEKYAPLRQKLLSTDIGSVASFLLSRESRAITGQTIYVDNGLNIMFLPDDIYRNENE
// pIC50 is dimensionless: -log10 of concentration (M)

Observe how each entry below is paired with its result.
compound | endpoint-value
O=c1c(O)c(-c2ccc(O)cc2)oc2cc(O)cc(O)c12 [KAEMPFEROL] | 4.70
O=C(O[C@@H]1Cc2c(O)cc(O)cc2O[C@H]1c1cc(O)c(O)c(O)c1)c1cc(O)c(O)c(O)c1 [GALLOCATECHIN GALLATE] | 6.30
O=c1c(O)c(-c2ccc(O)c(O)c2)oc2cc(O)ccc12 [FISETIN] | 6.00
COc1cc(-c2oc3cc(O)cc(O)c3c(=O)c2O)ccc1O [ISORHAMNETIN] | 5.30
O=C(O[C@@H]1Cc2c(O)cc(O)cc2O[C@H]1c1ccc(O)c(O)c1)c1cc(O)c(O)c(O)c1 [(-)-CATECHINGALLATE] | 6.52
O=c1cc(-c2ccc(O)c(O)c2)oc2cc(O)cc(O)c12 [LUTEOLIN] | 5.70

Recorded pIC50 for O=c1cc(-c2ccc(O)cc2)oc2cc(O)cc(O)c12 [APIGENIN] with UniProt Q965D5, please? 4.30

Recorded pIC50 for O=C(O[C@@H]1Cc2c(O)cc(O)cc2O[C@@H]1c1cc(O)c(O)c(O)c1)c1cc(O)c(O)c(O)c1 [EPIGALOCATECHIN GALLATE] with UniProt Q965D5, please? 6.70

Recorded pIC50 for O=C(O[C@@H]1Cc2c(O)cc(O)cc2O[C@@H]1c1ccc(O)c(O)c1)c1cc(O)c(O)c(O)c1 [EPICATECHIN GALLATE] with UniProt Q965D5, please? 6.70

Recorded pIC50 for O=c1c(O)c(-c2ccc(O)cc2O)oc2cc(O)cc(O)c12 [MORIN] with UniProt Q965D5, please? 5.30

Recorded pIC50 for O=c1c(O)c(-c2ccccc2)oc2cc(O)ccc12 [3,7-DIHYDROXYFLAVONE] with UniProt Q965D5, please? 5.00

Recorded pIC50 for O=c1c(O)c(-c2ccc(O)c(O)c2)oc2cc(O)cc(O)c12 [QUERCETIN] with UniProt Q965D5, please? 5.82

Recorded pIC50 for O=c1c(O)c(-c2cc(O)c(O)c(O)c2)oc2cc(O)cc(O)c12 [MYRICETIN] with UniProt Q965D5, please? 6.40
